src = BigSolDB 2.1

conditions: in acetonitrile, 332.05 K
parameter.measured: solubility (mole fraction)
Form rule: numeric answer, no unit written next to it.

Challenge: Report solubility (mole fraction) for O=C1C=CC(=O)N1c1cc(F)c(Br)c(F)c1
Response given: 0.0119

----------
conditions: in THF, 288.45 K
parameter.measured: solubility (mole fraction)
Form rule: numeric answer, no unit written next to it.

Challenge: Report solubility (mole fraction) for O=C1C=CC(=O)N1c1cc(F)c(Br)c(F)c1
Response given: 0.0162

----------
details: in THF, 321.45 K
parameter.measured: solubility (mole fraction)
Form rule: numeric answer, no unit written next to it.

Challenge: Report solubility (mole fraction) for O=C1C=CC(=O)N1c1cc(F)c(Br)c(F)c1
Response given: 0.0355

----------
conditions: in ethanol, 339.65 K
parameter.measured: solubility (mole fraction)
Form rule: numeric answer, no unit written next to it.

Challenge: Report solubility (mole fraction) for O=C1C=CC(=O)N1c1cc(F)c(Br)c(F)c1
Response given: 0.0027

----------
conditions: in THF, 302.8 K
parameter.measured: solubility (mole fraction)
Form rule: numeric answer, no unit written next to it.

Challenge: Report solubility (mole fraction) for O=C1C=CC(=O)N1c1cc(F)c(Br)c(F)c1
Response given: 0.0228

----------
conditions: in acetonitrile, 307.15 K
parameter.measured: solubility (mole fraction)
Form rule: numeric answer, no unit written next to it.

Challenge: Report solubility (mole fraction) for O=C1C=CC(=O)N1c1cc(F)c(Br)c(F)c1
Response given: 0.0049

----------
conditions: in chloroform, 305.65 K
parameter.measured: solubility (mole fraction)
Form rule: numeric answer, no unit written next to it.

Challenge: Report solubility (mole fraction) for O=C1C=CC(=O)N1c1cc(F)c(Br)c(F)c1
Response given: 0.0092

----------
settings: in acetonitrile, 316.95 K
parameter.measured: solubility (mole fraction)
Form rule: numeric answer, no unit written next to it.

Challenge: Report solubility (mole fraction) for O=C1C=CC(=O)N1c1cc(F)c(Br)c(F)c1
Response given: 0.007

----------
conditions: in chloroform, 289.25 K
parameter.measured: solubility (mole fraction)
Form rule: numeric answer, no unit written next to it.

Challenge: Report solubility (mole fraction) for O=C1C=CC(=O)N1c1cc(F)c(Br)c(F)c1
Response given: 0.0055

----------
settings: in acetonitrile, 350.15 K
parameter.measured: solubility (mole fraction)
Form rule: numeric answer, no unit written next to it.

Challenge: Report solubility (mole fraction) for O=C1C=CC(=O)N1c1cc(F)c(Br)c(F)c1
Response given: 0.0217

----------
conditions: in chloroform, 328.35 K
parameter.measured: solubility (mole fraction)
Form rule: numeric answer, no unit written next to it.

Challenge: Report solubility (mole fraction) for O=C1C=CC(=O)N1c1cc(F)c(Br)c(F)c1
Response given: 0.0176

----------
conditions: in acetone, 307.6 K
parameter.measured: solubility (mole fraction)

Challenge: Report solubility (mole fraction) for O=C1C=CC(=O)N1c1cc(F)c(Br)c(F)c1
Response given: 0.0131

----------
details: in acetone, 321.45 K
parameter.measured: solubility (mole fraction)
Form rule: numeric answer, no unit written next to it.

Challenge: Report solubility (mole fraction) for O=C1C=CC(=O)N1c1cc(F)c(Br)c(F)c1
Response given: 0.0202

----------
conditions: in pyridine, 328.45 K
parameter.measured: solubility (mole fraction)
Form rule: numeric answer, no unit written next to it.

Challenge: Report solubility (mole fraction) for O=C1C=CC(=O)N1c1cc(F)c(Br)c(F)c1
Response given: 0.0341
